IC50: recorded values
- target_or_test_system: cIAP1-BIR3 (Homo sapiens (Human), UniProt Q13490)
- Sequence (Q13490 253-363): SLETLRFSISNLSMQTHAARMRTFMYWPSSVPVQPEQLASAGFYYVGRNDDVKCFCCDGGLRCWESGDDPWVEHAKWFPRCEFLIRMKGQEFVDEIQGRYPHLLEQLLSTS
- protocol_details: BIR binding assay (FRET competition), cIAP1 BIR3

>  <compound>
C[C@@H]1CN(CC(=O)N2CC(C)(C)c3[nH]c(=O)c(Cc4ccc(F)cc4)cc32)[C@@H](CN2CCN(Cc3cn(CCC(=O)N4CCN(C[C@H]5CN[C@H](C)CN5CC(=O)N5CC(C)(C)c6[nH]c(=O)c(Cc7ccc(F)cc7)cc65)[C@H](C)C4)nn3)C[C@H]2C)CN1 [Compound 156]

>  <value_reported>
15.8 to 31.6 nM

$$$$
>  <compound>
C[C@@H]1CN(CC(=O)N2CC(C)(C)c3[nH]c(=O)c(Cc4ccc(F)cc4)cc32)[C@@H](CN2CCO[C@H](C(=O)N[C@H]3CC[C@H](NC(=O)[C@@H]4CN(C[C@H]5CN[C@H](C)CN5CC(=O)N5CC(C)(C)c6[nH]c(=O)c(Cc7ccc(F)cc7)cc65)CCO4)CC3)C2)CN1 [Example 92]

>  <value_reported>
1.38 to 7.94 nM

$$$$
>  <compound>
C[C@@H]1CN(CC(=O)N2CC(C)(C)c3[nH]c(=O)c(Cc4ccc(F)cc4)cc32)[C@@H](CN2CCO[C@H](C(=O)NCCCCCCCCCCNC(=O)[C@@H]3CN(C[C@H]4CN[C@H](C)CN4CC(=O)N4CC(C)(C)c5[nH]c(=O)c(Cc6ccc(F)cc6)cc54)CCO3)C2)CN1 [Example 120]

>  <value_reported>
7.94 to 15.8 nM

$$$$
>  <compound>
C[C@@H]1CN(CC(=O)N2CC(C)(C)c3[nH]c(=O)c(Cc4ccc(F)cc4)cc32)[C@@H](CN2CCO[C@H](C(=O)NCCNC(=O)[C@@H]3CN(C[C@H]4CN[C@H](C)CN4CC(=O)N4CC(C)(C)c5[nH]c(=O)c(Cc6ccc(F)cc6)cc54)CCO3)C2)CN1 [Example 128]

>  <value_reported>
15.8 to 31.6 nM

$$$$
>  <compound>
C[C@@H]1CN(CC(=O)N2CC(C)(C)c3[nH]c(=O)c(Cc4ccc(F)cc4)cc32)[C@@H](CN2CCN(C(=O)c3ccc4cc(C(=O)N5CCN(C[C@H]6CN[C@H](C)CN6CC(=O)N6CC(C)(C)c7[nH]c(=O)c(Cc8ccc(F)cc8)cc76)[C@H](C)C5)ccc4c3)C[C@H]2C)CN1 [Example 18]

>  <value_reported>
1.38 to 7.94 nM

$$$$
>  <compound>
C[C@@H]1CN(CC(=O)N2CC(C)(C)c3[nH]c(=O)c(Cc4ccc(F)cc4)cc32)[C@@H](CN2CCC(CN(C)C(=O)c3ccc(C(=O)N(C)CC4CCN(C[C@H]5CN[C@H](C)CN5CC(=O)N5CC(C)(C)c6[nH]c(=O)c(Cc7ccc(F)cc7)cc65)CC4)cc3)CC2)CN1 [Example 96]

>  <value_reported>
1.38 to 7.94 nM

$$$$

# input for lookup
Ask: Name the reported IC50 value associated with the compound C[C@@H]1CN(CC(=O)N2CC(C)(C)c3[nH]c(=O)c(Cc4ccc(F)cc4)cc32)[C@@H](CN2CCN(CCCCCCCCCCN3CCN(C[C@H]4CN[C@H](C)CN4CC(=O)N4CC(C)(C)c5[nH]c(=O)c(Cc6ccc(F)cc6)cc54)[C@H](C)C3)C[C@H]2C)CN1 [Example 25]
Reply: 7.94 to 15.8 nM
